# credit: ChEMBL document CHEMBL5550206

# key: entry, value: IC50
# System: MIA PaCa-2
# Test method notes: Antiproliferative activity against human MIA PaCa-2 cells assessed as cell viability measured after 168 hrs incubation by SRB assay
# Format: functional, cell-based
# Experimental parameters: MIA PaCa-2, 168 h
The response must be a number in nM with no trailing unit.

Example cases with answers are listed next.
C[C@@H](Oc1ccc2c(-c3ccc(F)cc3Cl)cc(=O)oc2c1)C(=O)N1CCC[C@H](C(=O)O)C1 159
CO[C@H]1CC[C@@H](NC(=O)[C@@H](C)Oc2cc3oc(=O)cc(-c4ccc(F)cc4Cl)c3cc2F)CC1 2230
C[C@@H](Oc1cc2oc(=O)cc(-c3ccc(F)cc3Cl)c2cc1F)C(=O)NCC1CC1 294
CCN(CC)C(=O)[C@@H](C)Oc1cc2oc(=O)cc(-c3ccccc3F)c2cc1F 400
C[C@@H](Oc1cc2oc(=O)cc(-c3ccc(F)cc3Cl)c2cc1F)C(=O)N1CCCC1 456

Consider `C[C@@H](Oc1cc2oc(=O)cc(-c3ccc(F)cc3Cl)c2cc1F)C(=O)N1CCC(F)CC1` . Its measured IC50 is 115

Consider `C[C@@H](Oc1cc2oc(=O)cc(-c3ccc(F)cc3Cl)c2cc1F)C(=O)N1CCC(F)(F)CC1` . Its measured IC50 is 377

Consider `CCN(CC)C(=O)[C@@H](C)Oc1cc2oc(=O)cc(-c3ccccc3OC)c2cc1F` . Its measured IC50 is 1130

Consider `C[C@@H](Oc1cc2oc(=O)cc(-c3ccc(F)cc3Cl)c2cc1F)C(=O)N(C)C` . Its measured IC50 is 171
